Give measured Kd for each item. Keep answers brief.
# system name: QKI (recombinant His-QKI) (UniProt Q96PU8)
# Sequence: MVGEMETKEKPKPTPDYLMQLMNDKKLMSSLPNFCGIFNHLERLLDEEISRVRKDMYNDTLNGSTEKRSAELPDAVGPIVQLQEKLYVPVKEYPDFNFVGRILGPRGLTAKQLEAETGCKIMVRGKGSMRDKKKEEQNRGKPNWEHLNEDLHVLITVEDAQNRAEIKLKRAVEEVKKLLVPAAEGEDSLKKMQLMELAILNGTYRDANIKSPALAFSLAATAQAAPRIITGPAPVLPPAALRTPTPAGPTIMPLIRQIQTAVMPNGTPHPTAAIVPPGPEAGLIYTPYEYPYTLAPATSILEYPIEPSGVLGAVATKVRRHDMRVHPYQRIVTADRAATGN
# assay protocol: fluorescence polarization
# reported conditions: 2 mM Mg2+; FP: 20 mM HEPES pH 7.4, 150 mM NaCl, 2 mM MgCl2, 1 U/ul RiboLock, 10 mM DTT, 3 nM Cy3-RNA, 5 min, room temperature; domain array: 20 mM Tris-HCl pH 7.4, 200 mM …
Kindly answer with a numeric value in nM, unit omitted.

Ask: Look up and state reported Kd for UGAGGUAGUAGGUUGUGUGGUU [let-7b-Cy3]
Result: 8.07

Ask: Quickly give me recorded Kd for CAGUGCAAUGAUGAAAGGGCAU [miR-130b-Cy3]
Result: 7.03

Ask: Let me know recorded Kd for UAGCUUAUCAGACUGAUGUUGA [miR-21-Cy3] , thanks.
Result: 48.5
